TESTED TARGET: Pyruvate kinase PKLR (Homo sapiens, UniProt P30613, R510Q)
Sequence (P30613 whole entry R510Q): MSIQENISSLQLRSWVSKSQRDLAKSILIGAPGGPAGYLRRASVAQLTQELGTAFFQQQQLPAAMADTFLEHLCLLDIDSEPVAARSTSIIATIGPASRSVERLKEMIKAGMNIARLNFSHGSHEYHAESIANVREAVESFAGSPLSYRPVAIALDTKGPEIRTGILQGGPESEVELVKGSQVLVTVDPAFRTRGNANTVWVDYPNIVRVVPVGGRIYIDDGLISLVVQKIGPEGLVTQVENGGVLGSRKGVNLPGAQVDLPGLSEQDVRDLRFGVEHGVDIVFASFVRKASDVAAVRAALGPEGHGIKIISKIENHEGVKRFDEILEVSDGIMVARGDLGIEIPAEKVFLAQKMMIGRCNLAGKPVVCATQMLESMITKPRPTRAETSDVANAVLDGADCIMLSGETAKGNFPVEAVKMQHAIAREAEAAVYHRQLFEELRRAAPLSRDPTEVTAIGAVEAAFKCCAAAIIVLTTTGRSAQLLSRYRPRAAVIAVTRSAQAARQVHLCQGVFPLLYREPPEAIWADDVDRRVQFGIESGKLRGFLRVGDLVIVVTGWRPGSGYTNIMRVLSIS
ASSAY NAME: Activation of PKR R510Q mutant (unknown origin) incubated for 60 mins in presence of ADP, PEP and NADH by Spectraax microplate reader based assay
QUANTITY: AC50

O=C(c1ccc(NS(=O)(=O)c2cccc3cccnc23)cc1)N1CCC(O)(Cc2ccccc2F)CC1 :: < 0.1 µM
CC(C)CC1(O)CCN(C(=O)c2ccc(NS(=O)(=O)c3ccnc4scnc34)cc2)CC1 :: > 10 µM
Cc1ccccc1C1(O)CCN(C(=O)c2ccc(NS(=O)(=O)c3cccc4cccnc34)cc2)CC1 :: < 0.1 µM

Q) What AC50 value was documented for this compound, O=C(c1ccc(NS(=O)(=O)n2ccc3cccnc32)cc1)N1CCC(O)(c2ccccc2Cl)CC1 ?
A) > 10 µM
